conditions: 303.15 K; 100 kPa; Liquid; Vibrating tube method
Exercise: state measured mass density for each of the compounds provided.
One number for each entry, in kg/m3.

// worked examples, mass density included
[
  {
    "compound": "CCCCCCCCCO [nonan-1-ol]",
    "outcome measure": "mass density",
    "result value": 820.5
  },
  {
    "compound": "CCCCCCO [hexan-1-ol]",
    "outcome measure": "mass density",
    "result value": 811.5
  },
  {
    "compound": "CCCCCCCCCCO [decan-1-ol]",
    "outcome measure": "mass density",
    "result value": 822.7
  },
  {
    "compound": "CCCCOC(C)=O [butyl ethanoate]",
    "outcome measure": "mass density",
    "result value": 870.9
  },
  {
    "compound": "CCCCCCCCO [octan-1-ol]",
    "outcome measure": "mass density",
    "result value": 817.9
  }
]

Could you now look at the following compound, please?
Recorded mass density of CCCCCCCO [heptan-1-ol] , please.
815.2

* * *

conditions: 293.15 K; 100 kPa; Liquid; Concentric cylinders viscometry
outcome measure: log10 viscosity (log10 of the value in mPa·s)
Parameter value (number): base-10 log of viscosity in mPa·s.

Worked set:
[
  {
    "compound": "CCCCOC(C)=O [butyl ethanoate]",
    "log10 viscosity": -0.14
  },
  {
    "compound": "CCCCCCCCCO",
    "log10 viscosity": 1.06
  },
  {
    "compound": "CCCCCCCCCCO",
    "log10 viscosity": 1.16
  },
  {
    "compound": "CCCCCCO",
    "log10 viscosity": 0.73
  }
]

Hi, could you look up log10 viscosity for each item in my list?
1. CCCCCCCO
2. CCCCCCCCO

1. 0.85
2. 0.96

* * *

settings: 318.15 K; 100 kPa; Liquid; Concentric cylinders viscometry
Numbers after ± are expanded uncertainties.
outcome measure: viscosity
The answer should read as a number with its unit following.

Give viscosity for all compounds that follow.
1. CCCCCCO [hexan-1-ol]
2. CCCCCCCCCO [nonan-1-ol]
3. CCCCOC(C)=O [butyl ethanoate]
4. CCCCCCCCO [octan-1-ol]
5. CCCCCCCO [heptan-1-ol]
6. CCCCCCCCCCO [decan-1-ol]

2.58 ± 0.13 mPa·s
4.78 ± 0.24 mPa·s
0.512 ± 0.026 mPa·s
3.98 ± 0.2 mPa·s
3.21 ± 0.16 mPa·s
5.8 ± 0.29 mPa·s

* * *

details: 298.15 K; 100 kPa; Liquid; Vibrating tube method
For each of the compounds below, state its mass density.
Numbers only, in kg/m3.

Look up mass density for the entries below, preserving their order.
1. CCCCCCCCO
2. CCCCOC(C)=O [butyl ethanoate]
3. CCCCCCCO

821.4
876
818.7

* * *

conditions: 313.15 K; 100 kPa; Liquid; Concentric cylinders viscometry
We use 3 mPa·s as the dividing line for viscosity: on or above the line is true, below is false.

[
  {
    "compound": "CCCCOC(C)=O [butyl ethanoate]",
    "category label": "false"
  },
  {
    "compound": "CCCCCCCCCO",
    "category label": "true"
  },
  {
    "compound": "CCCCCCCCCCO",
    "category label": "true"
  },
  {
    "compound": "CCCCCCCCO",
    "category label": "true"
  }
]

Turning to the following compound.
Threshold query (viscosity >= 3 mPa·s) on CCCCCCCO
true

* * *

conditions: 303.15 K; 100 kPa; Liquid; Concentric cylinders viscometry
outcome measure: viscosity (mPa·s)
Give bare numbers, in mPa·s.

Below are worked cases with known answers.
[
  {
    "molecule": "CCCCCCO",
    "outcome measure": "viscosity",
    "result value": 3.94
  },
  {
    "molecule": "CCCCCCCCO",
    "outcome measure": "viscosity",
    "result value": 6.41
  },
  {
    "molecule": "CCCCCCCCCCO",
    "outcome measure": "viscosity",
    "result value": 9.76
  },
  {
    "molecule": "CCCCOC(C)=O [butyl ethanoate]",
    "outcome measure": "viscosity",
    "result value": 0.628
  },
  {
    "molecule": "CCCCCCCO",
    "outcome measure": "viscosity",
    "result value": 5.03
  }
]

Read the next record carefully.
What value of measured viscosity is listed for CCCCCCCCCO ?
7.86

* * *

settings: 323.15 K; 100 kPa; Liquid; Concentric cylinders viscometry
Lab note: anything with viscosity below 3 mPa·s is marked label 1; values at 3 mPa·s or higher are marked label 0.

[
  {
    "compound": "CCCCCCCCO [octan-1-ol]",
    "category label": "label 0"
  },
  {
    "compound": "CCCCCCCCCO [nonan-1-ol]",
    "category label": "label 0"
  },
  {
    "compound": "CCCCOC(C)=O [butyl ethanoate]",
    "category label": "label 1"
  },
  {
    "compound": "CCCCCCCO [heptan-1-ol]",
    "category label": "label 1"
  },
  {
    "compound": "CCCCCCCCCCO [decan-1-ol]",
    "category label": "label 0"
  }
]

Turning to the following compound.
Does this compound meet the criterion viscosity < 3 mPa·s? CCCCCCO [hexan-1-ol]
label 1

* * *

conditions: 308.15 K; 100 kPa; Liquid; Vibrating tube method
Provide the reported mass density of each item.
Numbers only, in kg/m3.

[
  {
    "molecule": "CCCCCCCCCO [nonan-1-ol]",
    "outcome measure": "mass density",
    "unit spec": "kg/m3",
    "result value": 817.1
  },
  {
    "molecule": "CCCCOC(C)=O [butyl ethanoate]",
    "outcome measure": "mass density",
    "unit spec": "kg/m3",
    "result value": 865.7
  },
  {
    "molecule": "CCCCCCO [hexan-1-ol]",
    "outcome measure": "mass density",
    "unit spec": "kg/m3",
    "result value": 807.9
  },
  {
    "molecule": "CCCCCCCO [heptan-1-ol]",
    "outcome measure": "mass density",
    "unit spec": "kg/m3",
    "result value": 811.6
  },
  {
    "molecule": "CCCCCCCCO [octan-1-ol]",
    "outcome measure": "mass density",
    "unit spec": "kg/m3",
    "result value": 814.4
  }
]

From here, focus on the item given below.
Could you share which mass density value was measured for CCCCCCCCCCO [decan-1-ol] ?
819.3

* * *

details: 313.15 K; 100 kPa; Liquid; Vibrating tube method
For each of the compounds below, state its mass density.
Answers are plain numbers, in kg/m3.

[
  {
    "compound": "CCCCCCO",
    "mass density, kg/m3": 804.2
  }
]

Batch of 5 compounds: report mass density for each.
1. CCCCCCCCCCO
2. CCCCCCCCO
3. CCCCCCCO
4. CCCCOC(C)=O [butyl ethanoate]
5. CCCCCCCCCO

[815.8, 810.9, 808, 860.5, 813.6]

* * *

So I've got a bunch of molecules here, and I need their mass density values.
settings: 323.15 K; 100 kPa; Liquid; Vibrating tube method
One number for each entry, in kg/m3.

Please supply mass density for each of the following items, keeping them in order.
1. CCCCCCCCO
2. CCCCOC(C)=O [butyl ethanoate]
3. CCCCCCO
4. CCCCCCCO
5. CCCCCCCCCO
6. CCCCCCCCCCO

1. 803.7
2. 850.1
3. 796.8
4. 800.7
5. 806.5
6. 808.9

* * *

settings: 293.15 K; 100 kPa; Liquid; Vibrating tube method
outcome measure: mass density (kg/m3)
Give bare numbers, in kg/m3.

[
  {
    "compound": "CCCCCCCCCO",
    "unit spec": "kg/m3",
    "mass density": 827.5
  },
  {
    "compound": "CCCCOC(C)=O [butyl ethanoate]",
    "unit spec": "kg/m3",
    "mass density": 881.1
  },
  {
    "compound": "CCCCCCCCCCO",
    "unit spec": "kg/m3",
    "mass density": 829.5
  },
  {
    "compound": "CCCCCCCO",
    "unit spec": "kg/m3",
    "mass density": 822.2
  },
  {
    "compound": "CCCCCCO",
    "unit spec": "kg/m3",
    "mass density": 818.7
  }
]

Below: the item to evaluate.
Look at this compound and give its reported mass density. CCCCCCCCO
824.9
